B1: LINE1-mini (parent)
chain: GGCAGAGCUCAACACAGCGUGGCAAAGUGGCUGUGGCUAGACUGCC

# Variants of: B1
# method_summary: self-cleavage, relative activity (ratio to wild type); higher = more cleavage; in vitro, sequencing; the parent is a self-cleaving ribozyme
Please note: yes (1) applies when self-cleavage is 0.1 or greater, and no (0) applies otherwise.

These recorded examples may help you get a feel for the data.
[
  {
    "seq_string": "GGCAGAGCUCAACACAGCUUGGCAAAGUGACUGUGGCUAGACUGCC [G19U G30A]",
    "answer_label": "yes (1)"
  },
  {
    "seq_string": "GGCAGAGCUCAGCACAUCGUGGCAAAGUGGCUGUGGCUAGACUGCC [A12G G17U]",
    "answer_label": "no (0)"
  },
  {
    "seq_string": "GGCAGAGCUCAACACAGCGUGGCAAAGUCGCUGUGGCUAGACCGCC [G29C U43C]",
    "answer_label": "yes (1)"
  },
  {
    "seq_string": "GGCAGAGCUCAACACAGCGUGGCAAAGUGGCUGUGGUUAGACUGUC [C37U C45U]",
    "answer_label": "no (0)"
  },
  {
    "seq_string": "GGCAGAGCUCAACGCAGCGCGGCAAAGUGGCUGUGGCUAGACUGCC [A14G U20C]",
    "answer_label": "yes (1)"
  }
]

Please indicate if the recorded self-cleavage for GGCAGAGCUCAACACAGGGUGGCAAAGUGGCUGUGGCUAGGCUGCC [C18G A41G] meets or exceeds 0.1.
no (0)

Please check the record GGCAAAGCUCAACACAGCGUGGCAAAGUGGCUGUGGCUAGUCUGCC [G5A A41U] and state if its self-cleavage is at or above 0.1.
no (0)

Where do the numbers come from? From the RNAGym collection of RNA variant scans (doi:10.7554/elife.90254).
